Tested on: T cells / MDSCs
EXPERIMENTAL DETAILS: Promotion of T cell proliferation in a co-culture model of MDSCs and T cells
Type: cell-based, mouse
ASSAY SETUP: Mus musculus, T-cell, 12 h, read-out: T-cell proliferation rate (%), 1 μM, MDSCs treated 12 hours, co-culture of MDSCs and T cells, compared to the control group
Consider the following molecules and their measured activation at 1 µM readings.
MEASURED METRIC: activation at 1 µM

1. C=C1C(=O)O[C@H]2[C@H]1CCC(C)=C1CC[C@@](C)(OC(=O)N3CCCCC3)[C@@H]12 | > 40%
2. C=C1C(=O)O[C@H]2[C@H]1CCC(C)=C1CC[C@@](C)(OC(=O)N3CCC(C)CC3)[C@@H]12 | 20 to 40%
3. C=C1C(=O)O[C@H]2[C@H]1CCC(C)=C1CC[C@@](C)(OC(=O)NCCO)[C@@H]12 | > 40%
4. CC1=C2CC[C@@](C)(OC(=O)N3CCCCC3)[C@@H]2[C@H]2OC(=O)[C@@H](CN3CCCC3)[C@@H]2CC1 | 0 to 20%
5. C=C1C(=O)O[C@H]2[C@H]1CCC(C)=C1CC[C@@](C)(OC(=O)NCCOC)[C@@H]12 | > 40%
